Biological target: SARS-CoV-2 Receptor Binding Domain (RBD) protein (SARS-CoV-2, UniProt P0DTC2 319-541)
Test: SPR, scFv captured via anti-V5, RBD as analyte
Below: a set of entries, each annotated with reported kon.
Enter your answer as a number in M⁻¹ s⁻¹; do not include the unit.

COVID19_P19_F02 (scFv, V domains shown) VH: EVQLVESGGGLVQPGGSLRLSCAASGFTFSSYGMHWVRQAPGKGLEWVSAYSGSGGYTYFADSVKGRFTISRDNSKNTLYLQMNSLRAEDTAVYYCVTNMDNSRDYFPHYFHDMDVWGQGTLVTVSS VL: DIVMTQSPLSLPVTPGEPASISCKSSQSLLHINGFNYLDWFLQKPGQSPQLLIYLGSNRAPGVPDRFSGSGSGTDFTLKISRVEAEDVGVYYCQQSLQNPRTFGGGTKVEIKR ... 106000
COVID19_P07_H01 (scFv, V domains shown) VH: EVQLVESGGGLVQPGGSLRLSCAASGFTFRSYAMHWVRQAPGKGLEWVAVISSDGRNKFYADSVKGRFTISRDNSKNTLYLQMNSLRAEDTAVYYCVTNMDNSRDYFPHYFHDMDVWGQGTLVTVSS VL: DIVMTQSPLSLPVTPGEPASISCRSSQSLLHSNGNNYMDWYLQKPGQSPQLLIYLASQRASGVPDRFSGSGSGTDFTLKISRVEAEDVGVYYCMQALQRPLTFGGGTKVEIKR ... 19900
COVID19_P08_C08 (scFv, V domains shown) VH: EVQLVESGGGLVQPGGSLRLSCAASGFTFRNYAMHWVRQAPGKGLEWVSAVSSSGGSPYYADSVKGRFTISRDNSKNTLYLQMNSLRAEDTAVYYCVTNMDNSRDYFPHYFHDMDVWGQGTLVTVSS VL: DIVMTQSPLSLPVTPGEPASISCRSSQSLVHSDGDNYLNWYLQKPGQSPQLLIYSGSYRASGVPDRFSGSGSGTDFTLKISRVEAEDVGVYYCMQGTHWPLTFGGGTKVEIKR ... 32000

Q: Please report the recorded kon for COVID19_P07_D04 (scFv, V domains shown) VH: EVQLVESGGGLVQPGGSLRLSCAASGFRFSDHPMHWVRQAPGKGLEWVAVITGSGRNKFYADSVKGRFTISRDNSKNTLYLQMNSLRAEDTAVYYCVTNMDNSRDYFPHYFHDMDVWGQGTLVTVSS VL: DIVMTQSPLSLPVTPGEPASISCRSSQSLLHRNGYNYLDWYLQKPGQSPQLLIYGASTRATGVPDRFSGSGSGTDFTLKISRVEAEDVGVYYCTQSLQTPLTFGGGTKVEIKR .
Ans: 24400

Q: Recorded kon for COVID19_P19_H07 (scFv, V domains shown) VH: EVQLVESGGGLVQPGGSLRLSCAASGFTFGTSAVSWVRQAPGKGLEWVSAISGSGGSTYYADSVKGRFTISRDNSKNTLYLQMNSLRAEDTAVYYCVTQRDNSRDYFPHYFHDMDVWGQGTLVTVSS VL: DIVMTQSPLSLPVTPGEPASISCRSSQSLLYSDGDTYLDWYLQKPGQSPQLLIYLGSIRAPGVPDRFSGSGSGTDFTLKISRVEAEDVGVYYCMQGLETPWTFGGGTKVEIKR , please?
Ans: 212000
